test system: MOLM14 F691L cells; assay: MOLM14 F691L cell viability assay (Cell Titer Glo); format: cell-based; conditions: Homo sapiens, MOLM-14; cell viability, Cell Titer Glo, 48 hours; read-out: MOLM14 F691L IC50
property: pIC50
Units for pIC50: none; it is -log10 of a concentration expressed in mol/L.

Some molecules with known pIC50 results, for comparison:
COc1cc2ncc(-c3nc(N[C@H]4CNCC[C@@H]4F)ncc3F)n2nc1C1COC1 [Compound 92a]	7.40
COc1cc2ncc(-c3nc(N[C@@H]4CCCNC4)ncc3F)n2nc1N1CCCS1(=O)=O [Compound 110a]	6.95
COc1cc2ncc(-c3nc(N[C@@H]4CCCNC4)ncc3F)n2nc1C1CC1	8.30
COc1cc2ncc(-c3ccnc(N[C@H]4CNC[C@@H]4F)n3)n2nc1C12CC(C1)C2 [Compound 89a]	6.80
COc1cc2ncc(-c3ccnc(N[C@H]4CNCC[C@@H]4F)n3)n2nc1C1CCC1 [Compound 79a]	7.00
COc1cc2ncc(-c3nc(N[C@H]4CNCC[C@@H]4F)ncc3F)n2nc1[C@H]1C[C@@H](O)C1 [Compound 126a]	7.10
COc1cc2ncc(-c3ccnc(N[C@H]4CNC[C@@H]4F)n3)n2nc1C1COC1 [Compound 95a]	5.70

Next, consider the following molecule.
Enquiry: Name the recorded pIC50 for COc1cc2ncc(-c3ccnc(N[C@@H]4CCCNC4)n3)n2nc1C1CC2(CCC2)C1 [Compound 76a] .
Return: 5.95

----------
tested on: MOLM14-D835Y cells (FLT3-ITD (D835Y) mutant); assay: Combination drug screening with venetoclax in MOLM14 (D835Y) cells (Cell Titre Glo, 10 × 10); format: cell-based; set-up: scale not given here; conditions: 10 × 10 dataset, Cell Titre Glo at 48 hours, optimal of 4 dose combinations, negative = synergy
property: Excess HSA (sum excess HSA score, combination with venetoclax)
// keep it numeric: no unit symbol after the value

COc1cc2ncc(-c3nc(N[C@H]4CNCC[C@@H]4F)ncc3F)n2nc1C1CC(C)(C)C1 [Compound 57a]	−1762
COc1cc2ncc(-c3nc(N[C@H]4CNCC[C@@H]4F)ncc3F)n2nc1C1CCC1 [Compound 54a]	−1490
COc1cc2ncc(-c3ccnc(N[C@H]4CNCC[C@@H]4F)n3)n2nc1C1CCC1 [Compound 79a]	−1180

Enquiry: Name the recorded Excess HSA (sum excess HSA score, combination with venetoclax) for COc1cc2ncc(-c3nc(N[C@@H]4CCCNC4)ncc3F)n2nc1C1CC2(CCC2)C1 [Compound 59a] .
Return: −1911

Enquiry: Name the recorded Excess HSA (sum excess HSA score, combination with venetoclax) for COc1cc2ncc(-c3ccnc(N[C@H]4CNCC[C@@H]4F)n3)n2nc1C1CC2(CCC2)C1 [Compound 74a] .
Return: −1335

----------
biological target: FLT3 ITD (Homo sapiens, UniProt P36888); construct: fused on or other part: DNA tag for qPCR detection (kinase-tagged T7 phage, or made in HEK-293 cells and then tagged with DNA); test: DiscoverX KINOMEscan competition binding assay, FLT3 ITD; settings: 11-point 3-fold dilution
Below, each entry is listed alongside its reported pKd.
Units for pKd: none; it is -log10 of a concentration expressed in mol/L.

Some molecules with known pKd results, for comparison:
COc1cc2ncc(-c3nc(N[C@H]4CNCC[C@@H]4F)ncc3F)n2nc1N1CCCS1(=O)=O [Compound 112a]	9.70
CC(C)(O)c1ccc2ncc(-c3nc(N[C@H]4CNCC[C@@H]4F)ncc3F)n2c1 [Compound 46a]	9.72
COc1cc2ncc(-c3nc(N[C@H]4CNCC[C@@H]4F)ncc3F)n2nc1C1COC1 [Compound 92a]	9.68

Enquiry: Name the recorded pKd for FC(F)COc1cc2ncc(-c3ccnc(N[C@H]4CNCC[C@@H]4F)n3)n2nc1C1CC1 .
Return: 8.77

Enquiry: Name the recorded pKd for COc1cc2ncc(-c3nc(N[C@H]4CNCC[C@@H]4F)ncc3F)n2nc1C1CC1 .
Return: 9.68

Enquiry: Name the recorded pKd for CC(C)(O)c1cn2c(-c3nc(N[C@H]4CNCC[C@@H]4F)ncc3F)cnc2cn1 [Compound 100a] .
Return: 8.57

Where do the numbers come from? From patent US20260226048A1.
